Source of measurements: ChEMBL document CHEMBL1124983

- TEST_SYSTEM: Leukotriene B4 receptor 1 (Homo sapiens) (UniProt Q15722)
- Sequence (Q15722 whole entry): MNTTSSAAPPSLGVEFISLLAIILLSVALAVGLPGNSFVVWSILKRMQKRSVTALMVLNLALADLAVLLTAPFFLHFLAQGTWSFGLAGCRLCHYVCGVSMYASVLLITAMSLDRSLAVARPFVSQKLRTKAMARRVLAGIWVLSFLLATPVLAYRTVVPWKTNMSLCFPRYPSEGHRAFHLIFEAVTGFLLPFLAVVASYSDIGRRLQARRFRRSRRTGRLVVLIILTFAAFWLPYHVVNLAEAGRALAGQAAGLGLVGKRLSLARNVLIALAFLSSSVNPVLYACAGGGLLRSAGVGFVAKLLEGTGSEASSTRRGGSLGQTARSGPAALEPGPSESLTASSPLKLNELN
- TEST: Antagonistic activity against Leukotriene B4 receptor by using [3H]LTB4 as a radioligand at a concentration of 10e-5 M
- Type: functional
PROPERTY_MEASURED: inhibition (%)

Worked set:
compound="CCCCCCCCCCOc1ccc(C(O)c2ccc(C(=O)O)cc2)cc1CC(=O)O (stereo not given)" value_observed=59
compound=CCCCCCCCCCOc1ccc(C(=O)c2cccc(C(=O)OCC)c2)cc1CC(=O)OCC value_observed=0
compound="CCCCCCCCCCOc1ccc(C(O)c2cccc(C(=O)O)c2)cc1CCC(=O)O (stereo not given)" value_observed=91
compound="CCCCCCCCCCOc1ccc(C(O)c2cccc(C(=O)O)c2)cc1CC(=O)O (stereo not given)" value_observed=75
compound=CCCCCCCCCCOc1ccc(C(=O)Cc2ccccc2C(=O)O)cc1CCC(=O)O value_observed=95
compound=CCCCCCCCCCOc1ccc(C(=O)c2cccc(C(=O)O)c2)cc1CCc1nnn[nH]1 value_observed=96
compound=CCCCCCCCCCOc1ccc(C(=O)c2cccc(C(=O)O)c2)c(O)c1 value_observed=19
compound="O=C(O)CCc1cc([S+]([O-])c2cccc(C(=O)O)c2)ccc1OCCCCCCc1ccccc1 (stereo not given)" value_observed=79

(I) CCCCCCCCCCOc1ccc(C(=O)c2ccccc2)cc1CC(=O)O
(II) CCCCCCCCCCOc1ccc(C(=O)c2cccc(C(=O)NC)c2)cc1CCC(=O)NC
Q: Hello, I am sorting some records. Could you say if I or II has the smaller inhibition value? Give the label of your selection.
A: II
(II: 0%, I: 24%)

---

- TEST_SYSTEM: Leukotriene B4 receptor 1 (Homo sapiens)
- TEST: Antagonistic activity against Leukotriene B4 receptor by using [3H]LTB4 as a radioligand at a concentration of 10e-5 M
- Type: functional
PROPERTY_MEASURED: inhibition (%)

smiles_text=CCCCCCCCCCOc1ccc(C(=O)c2cccc(C(=O)O)c2)cc1C(=O)O test_system="Leukotriene B4 receptor 1 (Homo sapiens)" value_observed=76

(1) CCCCCCCCCCOc1ccc(C(=O)c2cccc(C(=O)OCC)c2)cc1Cc1nnn[nH]1
(2) O=C(O)CCc1cc(/C(=N\O)c2cccc(C(=O)O)c2)ccc1OCCCCCCc1ccccc1
Q: Hello, I am sorting some records. Could you say if 1 or 2 has the smaller inhibition value? Give the label of your selection.
A: 1
(1: 0%, 2: 96%)

---

- TEST_SYSTEM: Leukotriene B4 receptor 1 (Homo sapiens) (UniProt Q15722)
- TEST: Antagonistic activity against Leukotriene B4 receptor by using [3H]LTB4 as a radioligand at a concentration of 10e-5 M
- Type: functional
PROPERTY_MEASURED: inhibition (%)

Worked set:
compound=CCCCCCCCCCOc1ccc(C(=O)c2cccc(C(=O)O)c2)cc1Cc1nnn[nH]1 units_symbol=% value_observed=83
compound=CCCCCCCCCCOc1ccc(C(=O)c2cccc(Cc3nnn[nH]3)c2)cc1CCC(=O)O units_symbol=% value_observed=99
compound="CCCCCCCCCCOc1ccc(C(OCC)c2cccc(C(=O)O)c2)cc1CCC(=O)O (stereo not given)" units_symbol=% value_observed=78

(I) CCCCCCCCCCOc1ccc(C(=O)c2cccc(C(=O)O)c2)c(CC(=O)O)c1
(II) CCCCCCCCCCOc1ccc(C(=O)c2cccc(S(=O)(=O)NC)c2)cc1CCC(=O)O
Q: I or II : whose inhibition is greater? Give the label of your selection.
A: I

(P) CCCCCCCCCCOc1ccc(C(=O)c2cccc(C(=O)O)c2)cc1CCCC(=O)O
(Q) CCCCCCCCCCOc1ccc(C(=O)c2cccc(C#N)c2)cc1CC#N
(R) CCCCCCCCCCOc1ccc(C(=O)CCCC(=O)O)cc1CC(=O)O
(S) CCCCCCCCCCOc1ccc(C(=O)c2cccc([N+](=O)[O-])c2)cc1CCC(=O)O
(T) O=C(O)CCc1cccc(NC(=O)c2cccc(C(=O)O)c2)c1OCCCCCCc1ccccc1
Q: Endpoint returns the given compounds ordered by ascending inhibition. Order the labels as requested and list them.
A: Q, S, T, R, P

(a) O=C(O)CCc1cc(S(=O)(=O)c2cccc(C(=O)O)c2)ccc1OCCCCCCc1ccccc1
(b) CCCCCCCCCCOc1ccc(C(=O)c2ccccc2C(=O)O)cc1CC(=O)O
Q: Hello, I am sorting some records. Could you say if a or b has the smaller inhibition value? Give the label of your selection.
A: b
(b: 60%, a: 100%)

---

- TEST_SYSTEM: Leukotriene B4 receptor 1 (Homo sapiens) (UniProt Q15722)
- TEST: Antagonistic activity against Leukotriene B4 receptor by using [3H]LTB4 as a radioligand at a concentration of 10e-5 M
- Format: functional
PROPERTY_MEASURED: inhibition (%)

Worked set:
molecule=CCCCCCCCCCOc1ccc(C(=O)c2ccc(C(=O)O)cc2)cc1CC(=O)O units_symbol=% value_observed=76
molecule=CCCCCCCCCCOc1ccc(C(=O)c2cccc(-c3nn[nH]n3)c2)cc1CC(=O)O units_symbol=% value_observed=93
molecule=CCCCCCCCCCOc1ccc(C(=O)c2cccc(-c3nn[nH]n3)c2)cc1CCC(=O)OCC units_symbol=% value_observed=0

(1) CCCCCCCCCCOc1ccc(Oc2cccc(C(=O)O)c2)cc1CCC(=O)O
(2) CCCCCCCCCCOc1ccc(C(O)c2cccc(C(=O)O)c2)cc1 (stereo unspecified)
Q: Hello, I am sorting some records. Could you say if 1 or 2 has the smaller inhibition value? Give the label of your selection.
A: 2

---

- TEST_SYSTEM: Leukotriene B4 receptor 1 (Homo sapiens) (UniProt Q15722)
- TEST: Antagonistic activity against Leukotriene B4 receptor by using [3H]LTB4 as a radioligand at a concentration of 10e-7 M
- Format: functional
PROPERTY_MEASURED: inhibition (%)

Worked set:
molecule=O=C(O)CCc1cc(/C(=N\O)c2cccc(C(=O)O)c2)ccc1OCCCCCCc1ccccc1 property_measured=inhibition units_symbol=% value_observed=30
molecule=O=C(O)CCc1cc(Sc2cccc(C(=O)O)c2)ccc1OCCCCCCc1ccccc1 property_measured=inhibition units_symbol=% value_observed=29

(a) O=C(O)CCc1cc(S(=O)(=O)c2cccc(C(=O)O)c2)ccc1OCCCCCCc1ccccc1
(b) O=C(O)CCc1cc([S+]([O-])c2cccc(C(=O)O)c2)ccc1OCCCCCCc1ccccc1 (centres undefined)
Q: a or b : whose inhibition is greater? Give the label of your selection.
A: b
(b: 37%, a: 24%)

---

- TEST_SYSTEM: Leukotriene B4 receptor 1 (Homo sapiens)
- TEST: Antagonistic activity against Leukotriene B4 receptor by using [3H]LTB4 as a radioligand at a concentration of 10e-6 M
- Type: functional
PROPERTY_MEASURED: inhibition (%)

compound=CCCCCCCCCCOc1ccc(C(=O)c2cccc(-c3nn[nH]n3)c2)cc1CCC(=O)O property_measured=inhibition value_observed=71
compound="CCCCCCCCCCOc1ccc(C(O)c2cccc(C(=O)O)c2)cc1CC(=O)O (stereo not drawn)" property_measured=inhibition value_observed=28
compound=CCCCCCCCCCOc1ccc(C(=O)c2cccc(C(=O)O)c2)c(O)c1 property_measured=inhibition value_observed=13
compound="CCCCCCCCCCOc1ccc(C(O)c2cccc(C(=O)O)c2)cc1 (stereo not drawn)" property_measured=inhibition value_observed=3

(A) CCCCCCCCCCOc1ccc(C(=O)c2cccc(-c3nn[nH]n3)c2)cc1CCC(=O)OCC
(B) O=C(O)CCc1cc(/C(=N\O)c2cccc(C(=O)O)c2)ccc1OCCCCCCc1ccccc1
(C) CCCCCCCCCCOc1ccc(C(=O)c2cccc(C(=O)O)c2)cc1C(=O)O
Q: Sort by inhibition, descending. Order the labels as requested and list them.
A: B, C, A
(B: 84%, C: 21%, A: 1%)

(I) CCCCCCCCCCOc1ccc(Cc2cccc(C(=O)O)c2)cc1CCC(=O)O
(II) CCCCCCCCCCOc1ccc(C(=O)CCCC(=O)O)cc1CC(=O)O
Q: Hello, I am sorting some records. Could you say if I or II has the smaller inhibition value? Give the label of your selection.
A: II
(II: 2%, I: 41%)

(I) CCCCCCCCCCOc1ccc(C(=O)c2cccc(C(=O)OCC)c2)cc1CC(=O)OCC
(II) CCCCCCCCCCOc1ccc(C(=O)c2ccc(C(=O)O)cc2)cc1CC(=O)O
Q: I or II : whose inhibition is greater? Give the label of your selection.
A: II

(A) O=C(O)CCc1cc(Sc2cccc(C(=O)O)c2)ccc1OCCCCCCc1ccccc1
(B) CCCCCCCCCCOc1ccc(C(=O)c2cccc(-c3nnn[nH]3)c2)cc1Cc1nnn[nH]1
(C) CCCCCCCCCCOc1ccc(C(=O)c2cccc(C(=O)O)c2)cc1Cc1nnn[nH]1
(D) CCCCCCCCCCOc1ccc(C(=O)c2ccccc2)cc1CC(=O)O
(E) CCCCCCCCCCOc1ccc(C(=O)c2cccc(S(=O)(=O)NC)c2)cc1CCC(=O)O
Q: Sort by inhibition, descending. Order the labels as requested and list them.
A: A, C, B, E, D

(A) CCCCCCCCCCOc1ccc(C(=O)c2cccc(C(=O)O)c2)cc1CCc1nnn[nH]1
(B) CCCCCCCCCCOc1ccc(C(=O)c2cccc(C(=O)O)c2)cc1CC(=O)O
Q: Hello, I am sorting some records. Could you say if A or B has the smaller inhibition value? Give the label of your selection.
A: B

(P) CCCCCCCCCCOc1ccc(C(O)c2cccc(C(=O)O)c2)cc1CCC(=O)O (stereo not drawn)
(Q) CCCCCCCCCCOc1ccc(C(O)c2ccc(C(=O)O)cc2)cc1CC(=O)O (stereo not drawn)
Q: Hello, I am sorting some records. Could you say if P or Q has the smaller inhibition value? Give the label of your selection.
A: Q

(P) CCCCCCCCCCOc1ccc(C(OCC)c2cccc(C(=O)O)c2)cc1CCC(=O)O (stereo not drawn)
(Q) CCCCCCCCCCOc1ccc(/C(=N\O)c2cccc(C(=O)O)c2)cc1CCC(=O)O
Q: P or Q : whose inhibition is greater? Give the label of your selection.
A: Q

(P) CCCCCCCCCCOc1ccc(C(=O)c2cccc(C(=O)O)c2)cc1CCC(=O)O
(Q) CCCCCCCCCCOc1ccc(Oc2cccc(C(=O)O)c2)cc1CCC(=O)O
Q: P or Q : whose inhibition is greater? Give the label of your selection.
A: P
